# Assay system: Receptor-type tyrosine-protein kinase FLT3 (Homo sapiens, UniProt P36888, ITD)
# Sequence (P36888 whole entry, looked up, change not shown): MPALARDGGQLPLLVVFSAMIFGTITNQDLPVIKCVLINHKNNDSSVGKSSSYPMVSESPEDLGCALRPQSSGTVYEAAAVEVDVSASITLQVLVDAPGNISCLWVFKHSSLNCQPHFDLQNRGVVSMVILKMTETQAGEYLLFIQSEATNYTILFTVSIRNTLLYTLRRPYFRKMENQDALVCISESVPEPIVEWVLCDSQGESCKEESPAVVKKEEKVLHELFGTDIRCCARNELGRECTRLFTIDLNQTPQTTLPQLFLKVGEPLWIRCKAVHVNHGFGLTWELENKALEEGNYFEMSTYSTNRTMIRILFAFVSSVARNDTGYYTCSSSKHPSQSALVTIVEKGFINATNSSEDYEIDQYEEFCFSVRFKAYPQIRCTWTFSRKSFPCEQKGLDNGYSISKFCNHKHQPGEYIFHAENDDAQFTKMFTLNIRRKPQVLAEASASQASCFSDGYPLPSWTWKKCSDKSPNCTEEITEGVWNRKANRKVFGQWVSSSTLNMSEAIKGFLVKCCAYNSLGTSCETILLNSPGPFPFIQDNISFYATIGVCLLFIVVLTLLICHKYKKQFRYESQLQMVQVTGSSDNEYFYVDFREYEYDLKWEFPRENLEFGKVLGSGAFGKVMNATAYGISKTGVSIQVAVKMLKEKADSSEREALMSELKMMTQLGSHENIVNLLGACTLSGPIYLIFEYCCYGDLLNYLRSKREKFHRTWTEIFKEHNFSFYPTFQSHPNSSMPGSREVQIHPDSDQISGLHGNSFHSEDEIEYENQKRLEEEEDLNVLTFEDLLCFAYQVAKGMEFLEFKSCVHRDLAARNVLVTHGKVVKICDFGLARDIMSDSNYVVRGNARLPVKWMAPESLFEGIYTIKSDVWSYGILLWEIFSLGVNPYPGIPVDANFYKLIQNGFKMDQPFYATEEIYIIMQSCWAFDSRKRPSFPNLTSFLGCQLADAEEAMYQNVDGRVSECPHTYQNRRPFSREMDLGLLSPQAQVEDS
pIC50: −log10 of the molar value.

{"Structure smiles string": "O=C(Nc1ccc(N2CCOCC2)cc1C(F)(F)F)c1cnn2ccc(N[C@H]3CN4CCC3CC4)nc12", "Assay system": "Receptor-type tyrosine-protein kinase FLT3 (Homo sapiens, UniProt P36888, ITD)", "Result qualifier": "=", "pIC50": 7.93}
{"Structure smiles string": "CC(C)Oc1cc(N2CCOCC2)ccc1NC(=O)c1cnn2ccc(N[C@@H]3CCCNC3)nc12", "Assay system": "Receptor-type tyrosine-protein kinase FLT3 (Homo sapiens, UniProt P36888, ITD)", "Result qualifier": "=", "pIC50": 6.71}
{"Structure smiles string": "CN(c1ccn2ncc(C(=O)Nc3ccc(N4CCOCC4)cc3C(F)(F)F)c2n1)[C@@H]1CCCNC1", "Assay system": "Receptor-type tyrosine-protein kinase FLT3 (Homo sapiens, UniProt P36888, ITD)", "Result qualifier": "<", "pIC50": 6.00}
